- target-or-system: Cytochrome P450 2D6 (Homo sapiens) (UniProt P10635)
- Sequence (P10635 whole entry, looked up): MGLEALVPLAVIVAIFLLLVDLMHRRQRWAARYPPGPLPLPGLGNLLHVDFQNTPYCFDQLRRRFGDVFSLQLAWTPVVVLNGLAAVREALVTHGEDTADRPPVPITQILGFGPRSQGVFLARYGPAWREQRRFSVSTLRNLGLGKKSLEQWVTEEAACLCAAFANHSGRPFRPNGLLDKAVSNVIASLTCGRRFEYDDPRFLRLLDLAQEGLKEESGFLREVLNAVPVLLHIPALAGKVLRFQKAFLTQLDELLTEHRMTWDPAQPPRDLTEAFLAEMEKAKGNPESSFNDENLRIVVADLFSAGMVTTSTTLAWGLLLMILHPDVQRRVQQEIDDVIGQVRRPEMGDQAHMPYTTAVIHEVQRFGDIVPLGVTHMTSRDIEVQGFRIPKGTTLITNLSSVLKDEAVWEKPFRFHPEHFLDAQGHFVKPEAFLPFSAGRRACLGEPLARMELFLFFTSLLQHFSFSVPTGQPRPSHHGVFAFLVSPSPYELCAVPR
- test-method-notes: Cytochrome panel assay with activity outcomes
- experimental-conditions: recombinant CYP, pro-luciferin dealkylation, luminescence, p450-cyp2d6; series mostly up to 57.1 µM
About 2,600 (16%) of roughly 16,000 compounds were called active. Inconclusive results (about 20%) are left out. Calls come from the whole dose curve; as a rule, active = well fitted curve in the direction sought with a large enough effect; inconclusive = small, poorly fitted or top-dose-only effect, or effect the other way; inactive = no such curve, though single readings can be large or run the other way. Only a sample is shown.
Bench note: report the call from T (active), F (inactive)

>>> group("O=C(O)C1CCC(=O)N(C2CC2)C1c1ccccc1 (stereo not drawn)")
"F"
>>> group("CCOC(=O)Cc1cc(=O)n2[nH]c(C)c(-c3ccccc3)c2n1")
"F"
>>> group("Cn1c(=O)n(C)c2cc(/C=N/n3cnnc3)ccc21")
"F"
>>> group("CC(=O)C1=C(NC(=O)c2ccc(F)cc2)CC2C1C2(C)C (stereo not drawn)")
"F"
>>> group("COC(=O)c1cc2n(n1)CCN(Cc1ccccc1F)C2=O")
"F"

Exercise: Per the records of this test, what outcome belongs to Cc1nc(-c2cccnc2)sc1C(N)=O ?
Key: F

Exercise: Recorded test outcome, item Cc1cc(=O)oc(C)c1C(=O)N1CCCCC1
Key: F

Exercise: What did the test return for CCC(C)OC(=O)C1=C(C)NC(=O)CC1c1ccccc1OC (stereo not drawn) ?
Key: F

Exercise: Each compound tested received a call. Report the one for Cc1cccc(NC(=O)CSc2nc(-c3ccccc3)c(C#N)c(=O)[nH]2)c1C .
Key: F

Exercise: Status in this test for COc1ccc(-n2c(=O)cnc3cnc(N(C)C)nc32)cc1 ?
Key: F

Exercise: Could you please tell me the result logged for COC(=O)CNC(=O)CCCCC(=O)NCC(=O)OC in this assay?
Key: F

Exercise: Call for entry Cc1c(/C=N/NC(=O)c2ccc3c(c2)OCO3)cnn1C :
Key: F

Exercise: Recorded test outcome, item Cc1cccc(NC(=O)CSc2nnc(-c3ccco3)c(-c3ccco3)n2)c1C
Key: T

Exercise: Which result was noted for this compound in the test: Cc1cccc(NC(=O)c2cccc(N3C(=O)C4C5CCC(C5)C4C3=O)c2)c1C (stereo not drawn)
Key: F

Exercise: Which outcome was assigned to COc1ccc(S(=O)(=O)N2CCCCCC2)cc1N(C)S(=O)(=O)c1ccc(Cl)cc1 in this test?
Key: F

Exercise: // outcome(item) with item = COc1ncc2nc(-c3cccs3)c(=O)n(CCC#N)c2n1
Key: F

Exercise: Write down the call the test reported for this compound. Item: CCN(c1ccc(NC(=O)COC(=O)c2ccc3ccccc3n2)cc1)C(C)C
Key: F

Exercise: Look up the recorded call for Cc1cc(C)nc(SCC(=O)Nc2ccccc2[N+](=O)[O-])n1 in this test.
Key: F

Exercise: Tell me the assay call for CCCN(CCc1ccccc1)[C@H]1CCc2c(O)cccc2C1 please.
Key: T

Exercise: Could you kindly confirm the outcome this assay logged for CCCN(C/C=C\I)[C@@H]1CCc2cccc(O)c2C1 ?
Key: F

###

- target-or-system: Cytochrome P450 2D6 (Homo sapiens) (UniProt P10635)
- test-method-notes: Cytochrome panel assay with activity outcomes
- experimental-conditions: recombinant CYP, pro-luciferin dealkylation, luminescence, p450-cyp2d6; series mostly up to 57.1 µM
About 2,600 (16%) of roughly 16,000 compounds were called active. Another 20% or so got no clear call; they are omitted. Calls follow the shape of the dose curve; as a rule, active = well fitted curve in the direction sought with a large enough effect; inconclusive = small, poorly fitted or top-dose-only effect, or effect the other way; inactive = no such curve, though single readings can be large or run the other way. Not all results are given here.
Use one of these outcomes when replying: active, inactive

>>> group("O=S(Cc1ccccc1)CC(O)(c1ccccc1)c1ccccc1 (centres undefined)")
"active"
>>> group("Nc1c(-c2cccs2)cnn1-c1nc(-c2ccc(F)cc2)cs1")
"inactive"
>>> group("CC1=NN(c2ccccc2)C(=O)C1C(=O)c1ccc(Cl)cc1 (centres undefined)")
"inactive"

We next turn to a different molecule, shown below.
Exercise: Outcome? Cc1nc(NC(=O)c2ccccc2)sc1-c1csc(Nc2cccc(Cl)c2)n1
Key: active

###

- target-or-system: Cytochrome P450 2D6 (Homo sapiens) (UniProt P10635)
- test-method-notes: Cytochrome panel assay with activity outcomes; for activity, negative = inhibition: % is set by controls: 0 for no effect and ±100 for the full control effect
- experimental-conditions: recombinant CYP, pro-luciferin dealkylation, luminescence, p450-cyp2d6; series mostly up to 57.1 µM
Screen size: about 16,000 compounds; about 2,600 (16%) were called active. About 20% were inconclusive and are not listed. These entries were drawn from the full list.
assay-endpoint: activity, negative = inhibition

The examples below pair each entry with its known result.
>>> assay_result("C[N+]1(CCC[N+]2(C)C[C@H]3[C@H](C2)[C@H]2C=C[C@@H]3CC2)CCOCC1 (stereo not given in full)")
"-2.37% [at 11.4 µM] (inactive)"
>>> assay_result("CN[C@@H]1NC(=O)c2ccccc2N1Cc1ccc(F)cc1")
"10.6% [at 11.4 µM] (inactive)"
>>> assay_result("C[C@@H]1CCCC(CC(=O)O)(CC(=O)O)C1")
"0.077% [at 11.4 µM] (inactive)"
>>> assay_result("CO[C@H]1COC(=O)[C@H]2CCCN2C(=O)[C@@H](C)COC(=O)C/C=C\\[C@@H]1C")
"19.9% [at 11.4 µM] (inactive)"

Exercise: Lab note: record activity, negative = inhibition of CCOC(=O)N/N=C1/C[C@@H](O)[C@@H](O)[C@@H]2[C@@H]3C(=O)N(c4cccc(Oc5ccccc5)c4)C(=O)[C@H]3CC[C@@H]12 tested on Cytochrome P450 2D6 (Homo sapiens) (UniProt P10635).
Key: 4.14% [at 11.4 µM] (inactive)

###

- target-or-system: Cytochrome P450 2D6 (Homo sapiens) (UniProt P10635)
- test-method-notes: Cytochrome panel assay with activity outcomes
- experimental-conditions: recombinant CYP, pro-luciferin dealkylation, luminescence, p450-cyp2d6; series mostly up to 57.1 µM
Among all 16,000 compounds or so, about 2,600 (16%) were called active. Roughly 20% stayed inconclusive and do not appear here. Calls follow the shape of the dose curve; as a rule, active = well fitted curve in the direction sought with a large enough effect; inconclusive = small, poorly fitted or top-dose-only effect, or effect the other way; inactive = no such curve, though single readings can be large or run the other way. A selection follows.
// allowed return values: True (active), False (inactive)

Below are worked cases with known answers.
>>> group("Nc1nc(Br)c2ccccc2c1-c1ccc(F)cc1")
"False"
>>> group("CCOc1ccc(/C(O)=C2\\C(=O)C(=O)N(CCOCCO)C2c2ccccc2OC)cc1 (stereo not drawn)")
"False"
>>> group("Nc1ccc(Oc2ccc3nc(-c4ccccc4)c(-c4ccc([N+](=O)[O-])cc4)nc3c2)cc1")
"False"
>>> group("CC[N+](CC)(CC)CC(=O)Nc1c(C)cccc1C")
"False"
>>> group("CCOc1ccc(C2=[N+]([O-])C(C)(C)N(O)C2(C)C)cc1")
"False"

Exercise: What classification did Cc1cccc(C)c1NC(=S)NC(=O)CCc1ccccc1 end up with in this test?
Key: False

Exercise: Any idea what this test logged for CCOC(=O)C(C)Sc1ncc(OC)c(Sc2ccc(Cl)cc2)n1 (stereo not drawn) ?
Key: False

Exercise: Outcome? O=C(c1ccccc1)c1cc(F)c(N2CCOCC2)cc1Cl
Key: False

###

- target-or-system: Cytochrome P450 2D6 (Homo sapiens)
- test-method-notes: Cytochrome panel assay with activity outcomes
- experimental-conditions: recombinant CYP, pro-luciferin dealkylation, luminescence, p450-cyp2d6; series mostly up to 57.1 µM
Screen size: about 16,000 compounds; about 2,600 (16%) were called active. Roughly 20% stayed inconclusive and do not appear here. The call rests on the fitted dose curve; in most records, active means well fitted curve in the direction sought with a large enough effect; inconclusive means small, poorly fitted or top-dose-only effect, or effect the other way; inactive means no such curve, though single readings can be large or run the other way. The list is a sample of the results.
// one of active, inactive, no free text

Recorded results for 10 molecules are shown here.
>>> group("Fc1ccc(-c2ccnc3nc(N4CCOCC4)nn23)cc1")
"inactive"
>>> group("O=C(CCc1ccccc1)Nc1ncn[nH]1")
"inactive"
>>> group("CCCCC(=O)NC(=S)Nc1cccc(NC(=O)CC)c1")
"inactive"
>>> group("C=CCNC(=O)c1csc(-c2ccccc2)n1")
"inactive"
>>> group("Cc1cccc(Nc2cc(Cl)nc(SCC(=O)O)n2)c1C")
"active"
>>> group("COc1ccc(C2C(C(=O)N3CCOCC3)CCC(=O)N2c2ccc(OC)cc2)cc1 (centres undefined)")
"inactive"
>>> group("C[C@@H](C(=O)Nc1ccc2ccccc2c1)[C@H]1C[C@]1(C)[C@H](NC(=O)c1cnccn1)c1ccccc1")
"active"
>>> group("CC(=O)N1CCc2cc(S(=O)(=O)CCC(=O)Nc3c(C)n(C)n(-c4ccccc4)c3=O)ccc21")
"inactive"
>>> group("Cc1nn(C)cc1C(=O)NNC(=S)Nc1ccccc1")
"inactive"
>>> group("CCC(C)NS(=O)(=O)c1ccc(OCC(=O)Nc2ccc3c(c2)OCCO3)cc1 (centres undefined)")
"inactive"

Exercise: Name the outcome recorded for COCCNc1cc(-c2c(C)noc2C)ncn1 in the assay.
Key: inactive

Exercise: Per the assay record, what outcome was assigned to O=c1oc2c(CN3CCOCC3)c(O)ccc2c2ccccc12 ?
Key: active

Exercise: # lookup: test call for O=c1c(-c2ccccc2)nc2cncnc2n1Cc1ccccc1Cl
Key: inactive

Exercise: Name the outcome recorded for C[C@@H](C(=O)Nc1ccc2ccccc2c1)[C@@H]1C[C@@]1(C)[C@@H](NC(=O)c1ccncc1Cl)c1ccccc1 in the assay.
Key: active

Exercise: What did this assay record as the result for N#Cc1ccc(C(=O)Nc2ccc(N3CCN(C(=O)c4ccco4)CC3)cc2)c(F)c1 ?
Key: inactive

Exercise: Please indicate how the test categorized CCN(CC)S(=O)(=O)N1CCC(C(=O)NC2CCCC2)CC1 .
Key: inactive

Exercise: What is the recorded call for this molecule in the test? Cc1cc(NC(=O)CCN2C(=O)C3C4CCC(C4)C3C2=O)c(C)cc1Br (centres undefined)
Key: inactive

Exercise: What call does the record list for CN1CCC2(CC1)CCN(C(=O)c1cc(C(F)(F)F)cc(C(F)(F)F)c1)CC2 ?
Key: inactive

Exercise: Test call, this molecule: CCOc1ccc2nc(C)cc(Nc3ccc4c(c3)OCCO4)c2c1
Key: active

Exercise: Hi, do you know how CCNC(=S)NNC(=O)c1cc(C)on1 came out in this test?
Key: inactive

Exercise: Outcome logged for CCCC(=O)NNC(=O)Nc1ccccc1 in this assay:
Key: inactive

Exercise: How was N/C(=N\c1nc2ccccc2o1)NC(=O)c1ccccc1F classified in this test?
Key: inactive

Exercise: # fetch the recorded call for CCC(=O)O[C@@]1(C(=O)SCF)[C@@H](C)C[C@H]2[C@@H]3C[C@@H](F)C4=CC(=O)C=C[C@@]4(C)[C@]3(F)[C@@H](O)C[C@]21C here
Key: inactive

Exercise: Could you check what this test reported for CC1(C)CC(=O)C(C=NCCN2CCN(C(=S)Nc3ccc(F)cc3)CC2)=C(O)C1 ?
Key: inactive

Exercise: Hi, sorry to bother you, what did the test record for COC(=O)[C@H]1C[C@@H]1[C@H](NC(=O)c1cccnc1)c1ccccc1 ?
Key: inactive

Exercise: Hi, sorry to bother you, what did the test record for O=C(CCc1ccccc1)NNC(=O)c1ccco1 ?
Key: inactive

Exercise: Please indicate how the test categorized COC(=O)[C@H]1C[C@@H]1[C@H](NC(=O)c1cnccn1)c1ccccc1 .
Key: inactive

Exercise: Kindly provide the recorded test outcome for the following molecule: CC(C)CN(CC(C)C)C1=N/C(=C\c2ccco2)C(=O)N1c1ccccc1
Key: inactive

Exercise: Assay outcome for COc1ccc(Oc2ncc3nc(-c4ccc(Cl)cc4)c(=O)n(C)c3n2)cc1 : what was it?
Key: inactive

Exercise: Hi, do you know how Cc1cc(SCC(=O)c2ccccc2)nc(SCC(=O)c2ccccc2)n1 came out in this test?
Key: inactive

Exercise: Write down the call the test reported for this molecule. Item: Cc1ccc(OC(=O)N2CCOCC2)cc1
Key: inactive
